Origin of measurements: patent US20240043427A1

molecular target: UniProtKB P21589; type: biochemical; conditions: 1 mM NaH2PO4 in enzyme buffer, CD73 0.3 nM, AMP 15 uM
Sequence (P21589 27-574): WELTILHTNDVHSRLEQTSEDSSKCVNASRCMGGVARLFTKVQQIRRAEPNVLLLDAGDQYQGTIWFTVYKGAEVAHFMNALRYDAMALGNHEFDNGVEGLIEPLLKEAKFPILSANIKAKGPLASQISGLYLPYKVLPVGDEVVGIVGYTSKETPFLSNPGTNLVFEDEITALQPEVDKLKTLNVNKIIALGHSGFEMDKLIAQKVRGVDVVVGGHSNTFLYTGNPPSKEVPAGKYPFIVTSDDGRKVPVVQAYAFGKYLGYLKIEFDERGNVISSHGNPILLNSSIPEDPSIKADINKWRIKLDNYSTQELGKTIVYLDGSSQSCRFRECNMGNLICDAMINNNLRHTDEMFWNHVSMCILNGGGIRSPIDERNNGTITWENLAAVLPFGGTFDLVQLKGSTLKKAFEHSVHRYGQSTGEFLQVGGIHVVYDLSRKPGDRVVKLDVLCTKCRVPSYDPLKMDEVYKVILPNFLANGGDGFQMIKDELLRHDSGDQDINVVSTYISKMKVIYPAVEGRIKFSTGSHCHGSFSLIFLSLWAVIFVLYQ
Heads up, the class ranges for IC50 are LOW (below 1 nM), MEDIUM (1 nM to below 7 nM), HIGH (7 nM or more)

A selection of reference data follows.
[[record]]
compound = "N#Cc1cncc([C@H]2C[C@@H]2c2cc(-c3c[nH]c(=O)[nH]c3=O)nn3ccnc23)c1 (racemic)"
class_name = "MEDIUM"

[[record]]
compound = "O=c1[nH]cc(-c2cc([C@H]3C[C@@H]3c3ccccn3)c3nccn3n2)c(=O)[nH]1 (racemic) [Example 52]"
class_name = "MEDIUM"

[[record]]
compound = "CC1(C)CN(c2cc(-c3c[nH]c(=O)[nH]c3=O)nn3ccnc23)CC(F)(F)C1"
class_name = "HIGH"

[[record]]
compound = "O=c1[nH]cc(-c2cc(N3C[C@H](Oc4ccc(C(F)(F)F)cn4)C(F)(F)C3)c3nccn3n2)c(=O)[nH]1"
class_name = "LOW"

[[record]]
compound = "N#Cc1ccc([C@H]2C[C@@H]2c2cc(-c3c[nH]c(=O)[nH]c3=O)nn3ccnc23)cc1C1CC1"
class_name = "LOW"


GET /class?item= O=c1[nH]cc(-c2cc(N3CC(Oc4cnc(C(F)(F)F)cn4)C(F)(F)C3)c3nccn3n2)c(=O)[nH]1 (stereo not drawn)
MEDIUM

GET /class?item= `O=c1[nH]cc(-c2cc(NCCc3cccc(Cl)c3)c3nccn3n2)c(=O)[nH]1`
HIGH

GET /class?item= O=C(c1ccc([C@H]2C[C@@H]2c2cc(-c3c[nH]c(=O)[nH]c3=O)nn3ccnc23)cc1)N1C[C@@H](F)[C@@H](F)C1 (racemic)
MEDIUM

GET /class?item= `O=C(c1ccc(C2CN(c3cc(-c4c[nH]c(=O)[nH]c4=O)nn4ccnc34)C2)cc1)N1CC(F)(F)C1`
HIGH

GET /class?item= N#Cc1ccc([C@H]2C[C@@H]2c2cc(-c3c[nH]c(=O)[nH]c3=O)nn3ccnc23)cc1F [Example 467]
LOW
